466~480 nm Tave, A: recorded values
- experimentalDetails: Transmittance of absorption membrane before and after reliability evaluation (Test Example 1)
- Format: physicochemical
- assayConditions: silicone resin membrane; after 85° C., 85% RH, 120 hours
// units = %; emit number, no label

- CCCCN1\C(=C/C=C/C=C/C=C/C2=[N+](CCCC)c3ccc4ccccc4c3C2(C)C)C(C)(C)c2c1ccc1ccccc21 [Comparative Example 2]: 90.2

Entry CCCCN1/C(=C\C=C2/CCC(/C=C/C3=[N+](CCCC)c4ccccc4C3(C)C)=C2Cl)C(C)(C)c2ccccc21 [Comparative Example 3] has what 466~480 nm Tave, A?
88

Same for CCCCN1\C(=C/C=C/C=C/C=C/C2=[N+](CCCC)c3ccccc3C2(C)C)C(C)(C)c2ccccc21 [Comparative Example 1]
89.5

Same for CC1(C)C(/C=C/C=C/C=C/C=C2\N(C[Si](C)(C)C)c3ccccc3C2(C)C)=[N+](C[Si](C)(C)C)c2ccccc21 [Embodiment 1]
91.1

Same for CC1(C)C(/C=C/C2=C(Cl)C(=C/C=C3\N(C[Si](C)(C)C)c4ccccc4C3(C)C)/CC2)=[N+](C[Si](C)(C)C)c2ccccc21 [Embodiment 3]
89.5

Same for CC1(C)C(/C=C/C=C/C=C/C=C2\N(C[Si](C)(C)C)c3ccc4ccccc4c3C2(C)C)=[N+](C[Si](C)(C)C)c2ccc3ccccc3c21 [Embodiment 2]
90.3

* * *

425~465 nm Tave, Δ: recorded values
- experimentalDetails: Transmittance of absorption membrane before and after reliability evaluation (Test Example 1)
- Assay type: physicochemical
- assayConditions: change before/after 85° C., 85% RH, 120 hours
// units = %; emit number, no label

Before answering, review these 5 worked examples.
• CC1(C)C(/C=C/C=C/C=C/C=C2\N(C[Si](C)(C)C)c3ccc4ccccc4c3C2(C)C)=[N+](C[Si](C)(C)C)c2ccc3ccccc3c21 = 0.1
• CCCCN1\C(=C/C=C/C=C/C=C/C2=[N+](CCCC)c3ccc4ccccc4c3C2(C)C)C(C)(C)c2c1ccc1ccccc21 = 0
• CCCCN1\C(=C/C=C/C=C/C=C/C2=[N+](CCCC)c3ccccc3C2(C)C)C(C)(C)c2ccccc21 = 0.2
• CC1(C)C(/C=C/C=C/C=C/C=C2\N(C[Si](C)(C)C)c3ccccc3C2(C)C)=[N+](C[Si](C)(C)C)c2ccccc21 = 0
• CC1(C)C(/C=C/C2=C(Cl)C(=C/C=C3\N(C[Si](C)(C)C)c4ccccc4C3(C)C)/CC2)=[N+](C[Si](C)(C)C)c2ccccc21 = 0.1

Please turn your attention to the following entry.
Entry CCCCN1/C(=C\C=C2/CCC(/C=C/C3=[N+](CCCC)c4ccccc4C3(C)C)=C2Cl)C(C)(C)c2ccccc21 has what 425~465 nm Tave, Δ?
−0.2

* * *

- experimentalDetails: Transmittance of absorption membrane before and after reliability evaluation (Test Example 1)
- Assay type: physicochemical
- assayConditions: silicone resin membrane about 6 μm; before reliability evaluation
recordedEndpoint: 425~465 nm Tave, B (%)
// units = %; emit number, no label

Before answering, review these 3 worked examples.
- CCCCN1/C(=C\C=C2/CCC(/C=C/C3=[N+](CCCC)c4ccccc4C3(C)C)=C2Cl)C(C)(C)c2ccccc21 [Comparative Example 3]: 87.3
- CCCCN1\C(=C/C=C/C=C/C=C/C2=[N+](CCCC)c3ccc4ccccc4c3C2(C)C)C(C)(C)c2c1ccc1ccccc21 [Comparative Example 2]: 89.6
- CC1(C)C(/C=C/C=C/C=C/C=C2\N(C[Si](C)(C)C)c3ccccc3C2(C)C)=[N+](C[Si](C)(C)C)c2ccccc21 [Embodiment 1]: 89.7

Entry CCCCN1\C(=C/C=C/C=C/C=C/C2=[N+](CCCC)c3ccccc3C2(C)C)C(C)(C)c2ccccc21 [Comparative Example 1] has what 425~465 nm Tave, B?
88.7

Same for CC1(C)C(/C=C/C=C/C=C/C=C2\N(C[Si](C)(C)C)c3ccc4ccccc4c3C2(C)C)=[N+](C[Si](C)(C)C)c2ccc3ccccc3c21 [Embodiment 2]
89.5

Same for CC1(C)C(/C=C/C2=C(Cl)C(=C/C=C3\N(C[Si](C)(C)C)c4ccccc4C3(C)C)/CC2)=[N+](C[Si](C)(C)C)c2ccccc21 [Embodiment 3]
87.8
